Origin of measurements: PubChem BioAssay (NCI)

test system: RXF 393 renal; experiment: NCI tumour cell line growth inhibition, 48 h
We begin with a simple list: items and their reported TGI.

Some entries whose results are on file:
Compound: COc1cccc(/C=N/NC(=O)c2ccccc2Nc2ccnc(C(F)(F)F)c2)c1O
TGI: 28 µM
//
Compound: Clc1ccc(C2N3CCCCC3[C@@H]3c4[nH]c5ccccc5c4CCN23)cc1 (stereo not given in full)
TGI: 78.7 µM
//
Compound: CCN1c2ccccc2-n2c(C)nnc2-c2c1n[nH]c2-c1ccccc1
TGI: > 100 µM
//
Compound: O=C(O)CC/C(=N\Nc1nsc2ccccc12)c1ccccc1
TGI: > 100 µM

Field: next compound
Entry CCCCC(=O)OCC1OC(n2cnc3c(=S)nc[nH]c32)C(OC(=O)CCCC)C1OC(=O)CCCC (stereo not given) has what TGI?
> 100 µM

###

system: CAKI-1 renal; assay: NCI tumour cell line growth inhibition, 48 h
Readout Type: TGI (µM)
State the answer as a number, implicitly in µM.

Test Smiles: CCCCC/C(C=C(C#N)C#N)=C/c1ccccc1
Unit: µM
TGI: 21.3

Field: next compound
Entry `Cc1nnc2n1N=C(c1cc(F)c(Cl)cc1Cl)/C(=C/c1ccc(Cl)cc1)S2` has what TGI?
41.4

###

tested on: SW-620 colon; assay: NCI tumour cell line growth inhibition, 48 h
Readout Type: TGI (µM)
State the answer as a number, implicitly in µM.

Some entries whose results are on file:
Molecule: CC(CN1c2ccccc2Sc2ccccc21)N(C)C (stereo unspecified)
Meas Value: 45
//
Molecule: O=C(Nc1ccc(N2CCNCC2)cc1)c1[nH]ncc1Nc1cc(Oc2ccccc2)ncn1
Meas Value: 1.94

Field: next molecule
Entry `Cc1c(C(=O)N/N=C/c2ccc(Cl)cc2)nnn1-c1ccnc2c(C(F)(F)F)cccc12` has what TGI?
47.6

###

system: HT29 colon; experiment: NCI tumour cell line growth inhibition, 48 h
Readout Type: TGI

Some entries whose results are on file:
Compound: CN(C)CCC(=O)N1C/C(=C/c2ccccc2)C(=O)/C(=C\c2ccccc2)C1
TGI: 2.69 µM
//
Compound: NC(=O)N/N=C(\Cc1nc2ccc(Cl)cc2[nH]c1=O)C(=O)Nc1ccc(Cl)cc1Cl
TGI: > 100 µM

Field: next compound
Entry COc1cc2c(cc1OC)C1=Cc3cc(OC)c(OC)cc3C(C)N1C=C2 (stereo not drawn) has what TGI?
> 100 µM

###

We begin with a simple list: items and their reported TGI.
test system: NCI-H522 lung; test: NCI tumour cell line growth inhibition, 48 h
State the answer as a number, implicitly in µM.

Compound: C=C(C(=O)C(=O)Oc1ccc(Cl)cc1)C(=O)c1ccc(C)cc1
TGI / µM: 40

Compound: Cc1nn(CN2CCN(C)CC2)c(=S)n1/N=C/c1cccc2ccccc12
TGI / µM: 39.8

Compound: Cc1ccc2c(c1)C(=O)/C(=C/c1ncc([N+](=O)[O-])n1C)O2
TGI / µM: 3.38

Compound: O=C(CCCCCCCCC(=O)NN1C(=O)/C(=C\c2ccc(O)c(O)c2)SC1c1ccc(Cl)cc1)NN1C(=O)/C(=C\c2ccc(O)c(O)c2)SC1c1ccc(Cl)cc1 (stereo unspecified)
TGI / µM: 32.5

Entry `NCC(=O)NS(=O)(=O)OC[C@H]1O[C@@H](n2cnc3c(N)ncnc32)[C@H](O)[C@@H]1O` has what TGI?
3.85

Entry `CCN(CC)CCc1c2c(nc3ccccc13)C(=O)c1cccnc1C2=O` please
6.46

Entry `C=C(CN1CCc2ccccc2C1)c1ccc(C(=O)Nc2cnccn2)cc1` please
42.5

Entry `Cc1ccc(-c2c3c([nH]c(=O)c2C#N)-c2cc(F)ccc2OC3)cc1` please
59.2

Entry CC(CN1c2ccccc2Sc2ccccc21)N(C)C (stereo unspecified) please
36.3

Entry `O=C1c2cccc(NCCN=Cc3cc(O)ccc3O)c2C(=O)c2c(NCCN=Cc3cc(O)ccc3O)cccc21` please
3.24

Entry `CSc1cc(N=Nc2nc3ccccc3s2)c2ccccc2c1O` please
13.1

###

system: T-47D breast; assay: NCI tumour cell line growth inhibition, 48 h; in the data active = GI50 below about 0.43 µM; inactive = the rest
Assign a class; possible classes are 1 (yes) = active, 0 (no) = inactive

# example entries with known answers
Test Smiles: COc1cc2c3c(n(C)c(=O)c2cc1OC)-c1cc2c(cc1/C3=C\CCCN1C(=O)c3ccccc3C1=O)OCO2
Cat: 0 (no)
//
Test Smiles: CN1CCN(Cc2ccc(NC(=O)c3cncc(C#Cc4cnc(N)c5ccc(C#N)cc45)c3)cc2C(F)(F)F)CC1
Cat: 1 (yes)
//
Test Smiles: Cc1ccc(CS/C(=C\c2ccc([N+](=O)[O-])cc2)C(=O)c2ccc(F)cc2)cc1
Cat: 0 (no)
//
Test Smiles: O=C1/C(=C/c2ccc(Br)cc2)C=C(c2ccccc2)N1CCc1ccccc1
Cat: 0 (no)
//
Test Smiles: N#C/C(=C1C=C/C(=N/O)C(Br)=C/1)c1ccccc1
Cat: 0 (no)

I would be grateful if you could indicate the recorded call for `Cc1ccc2c(c1)C(=O)/C(=C/c1ncc([N+](=O)[O-])n1C)O2` .
0 (no)

Entry `CCOc1cccc(/C=N/NC(=O)c2ccccc2Nc2ccnc(C(F)(F)F)c2)c1O` please
0 (no)

Entry `COc1ccc2c(c1)c(-c1nc(-c3cn(C)c4ncccc34)cs1)cn2CCCN1CCCCC1` please
0 (no)

Entry `COc1ccc2[nH]c(O)c(/C=c3/cc4c(c(-c5cc(OC)c(OC)c(OC)c5)n3)=Nc3ccccc3-4)c2c1` please
0 (no)

###

test system: SNB-75 CNS; test: NCI tumour cell line growth inhibition, 48 h
Returns one of Y or N; Y when TGI is >= 20 µM.

# example entries with known answers
Molecule: Nc1ccc2nc(-c3ccccn3)c(-c3ccccn3)nc2c1
Target: SNB-75 CNS
Cat: Y

Molecule: O=C(O)c1c2c(cc3c1CC1(Cc4ccccc4C1)C3)CCC2
Target: SNB-75 CNS
Cat: Y

Molecule: O=C(CI)NC1Oc2ccccc2-c2oc(=O)c(-c3ccccc3)cc21 (stereo not drawn)
Target: SNB-75 CNS
Cat: N

Molecule: COc1ccc2[nH]c(O)c(/C=c3/cc4c(c(-c5cc(OC)c(OC)c(OC)c5)n3)=Nc3ccccc3-4)c2c1
Target: SNB-75 CNS
Cat: Y

Molecule: Cc1c(C(=O)N/N=C/c2ccc(Cl)cc2)nnn1-c1ccnc2c(C(F)(F)F)cccc12
Target: SNB-75 CNS
Cat: N

Is TGI at least 20 µM? Consider CSc1nc(Cl)c2c(n1)Sc1nc3cc4c(cc3n1C2O)OCCO4 (stereo not drawn)
Y

Entry CC1(Cl)C(=O)NC(=O)N(C2CC(N=[N+]=[N-])C(CO)O2)C1N=[N+]=[N-] (stereo not drawn) please
Y

Entry `Cc1cc(N(CCOS(C)(=O)=O)CCOS(C)(=O)=O)ccc1C=Nc1ccc(-c2nc(Cc3ccccc3)sc2C)cc1` please
N

Entry CN(C(=O)C12C3C4C1C1C2C3C41C(=O)C(C)(C)C)C(C)(C)C (stereo not drawn) please
Y

Entry `Cc1ccc2c(c1)C(=O)/C(=C/c1ncc([N+](=O)[O-])n1C)O2` please
Y

Entry OCCC1(O)CCC(O)CC1 (stereo not drawn) please
Y

Entry `CN(C)CCC(=O)N1C/C(=C/c2ccccc2)C(=O)/C(=C\c2ccccc2)C1` please
N

###

tested on: NCI-H226 lung; test: NCI tumour cell line growth inhibition, 48 h
We begin with a simple list: items and their reported TGI.

Molecule: O=C(/C=C/c1ccc(O)c([N+](=O)[O-])c1)CC(=O)/C=C/c1ccc(O)c([N+](=O)[O-])c1
TGI: > 100 µM
//
Molecule: O=C(O)CSc1nnc(COc2ccc(Cl)cc2)n1-c1ccccc1
TGI: > 100 µM

Entry Nc1ccn(C2O[C@H](CO)[C@@H](O)[C@@H]2O)c(=O)n1 (some centres undefined) has what TGI?
> 100 µM

Entry O=C(CCCCCCCCC(=O)NN1C(=O)/C(=C\c2ccc(O)c(O)c2)SC1c1ccc(Cl)cc1)NN1C(=O)/C(=C\c2ccc(O)c(O)c2)SC1c1ccc(Cl)cc1 (centres undefined) please
> 100 µM

Entry COC(=O)C(=O)C(C(=O)C=C(C)C)C(=O)C(=O)Nc1cc(C(F)(F)F)ccc1Cl (centres undefined) please
> 100 µM

###

tested on: MOLT-4 leukemia; experiment: NCI tumour cell line growth inhibition, 48 h
Readout Type: TGI (µM)
State the answer as a number, implicitly in µM.

Some entries whose results are on file:
Compound: CCCCC/C(C=C(C#N)C#N)=C/c1ccccc1
Target: MOLT-4 leukemia
TGI (µM): 6.98
--
Compound: O=C1C(Cl)=C(N2CCN(C3=C(Cl)C(=O)c4ccccc4C3=O)CC2)C(=O)c2ccccc21
Target: MOLT-4 leukemia
TGI (µM): 1.69
--
Compound: CSc1nc(Cl)c2c(n1)Sc1nc3cc4c(cc3n1C2O)OCCO4 (stereo not given)
Target: MOLT-4 leukemia
TGI (µM): 16.7
--
Compound: CC(C)(C)c1ccc2c(c1)CNCCNCc1cc(C(C)(C)C)ccc1OCC1(CO2)COc2ccc(C(C)(C)C)cc2CNCCNCc2cc(C(C)(C)C)ccc2OC1
Target: MOLT-4 leukemia
TGI (µM): 0.504
--
Compound: COC(=O)CCCCN=Cc1c(O)c(O)c(C(C)C)c2cc(C)c(-c3c(C)cc4c(C(C)C)c(O)c(O)c(C=NCCCCC(=O)OC)c4c3O)c(O)c12
Target: MOLT-4 leukemia
TGI (µM): 19.2
--
Compound: COc1ccc2cc1Oc1ccc(cc1)CC1c3cc(c(OC)cc3CCN1C)Oc1c3c(cc4c1C(C2)N(C)CC4)OCO3 (stereo not given)
Target: MOLT-4 leukemia
TGI (µM): 21.5
--
Compound: Cc1ccc2c(c1)C(=O)/C(=C/c1ncc([N+](=O)[O-])n1C)O2
Target: MOLT-4 leukemia
TGI (µM): 7.43

Field: next compound
Entry `COc1ccc2[nH]c(O)c(/C=c3/cc4c(c(-c5cc(OC)c(OC)c(OC)c5)n3)=Nc3ccccc3-4)c2c1` has what TGI?
10.7
